Ref: patent US9884806B2

Molecular target: BRD4_2 (Homo sapiens)
Construct: contains two tandem bromodomains (BrD1 and BrD2)
Assay: Fluorescence anisotropy binding assay (competition with FITC-labeled MS417 probe), BRD4_2
Conditions: FITC-MS417 probe 80 nM, PBS pH 7.4, 1 hour, 25° C.

| compound.structure.string | IC50 |
| --- | --- |
| CC1=C(Nc2ccc3ccncc3c2)CCCC1=O | > 10 µM |
| CC1=C(Nc2ccc(C(=O)Nc3ccc(C)cc3)c(Cl)c2)CCC1=O | > 10 µM |
| CC1=C(Nc2ccc(C(=O)O)cc2C)CCC1=O | 1 to 10 µM |
| CC1=C(Nc2ccc3ncncc3c2)CCCC1=O | > 10 µM |
| CC1=C(N[C@H]2CC[C@H](C(=O)O)CC2)CCC1=O | > 10 µM |
